experimental.target: HIS-TGFβR1 T204D (Homo sapiens (Human), UniProt P36897, T204D)
Sequence (P36897 34-503 T204D): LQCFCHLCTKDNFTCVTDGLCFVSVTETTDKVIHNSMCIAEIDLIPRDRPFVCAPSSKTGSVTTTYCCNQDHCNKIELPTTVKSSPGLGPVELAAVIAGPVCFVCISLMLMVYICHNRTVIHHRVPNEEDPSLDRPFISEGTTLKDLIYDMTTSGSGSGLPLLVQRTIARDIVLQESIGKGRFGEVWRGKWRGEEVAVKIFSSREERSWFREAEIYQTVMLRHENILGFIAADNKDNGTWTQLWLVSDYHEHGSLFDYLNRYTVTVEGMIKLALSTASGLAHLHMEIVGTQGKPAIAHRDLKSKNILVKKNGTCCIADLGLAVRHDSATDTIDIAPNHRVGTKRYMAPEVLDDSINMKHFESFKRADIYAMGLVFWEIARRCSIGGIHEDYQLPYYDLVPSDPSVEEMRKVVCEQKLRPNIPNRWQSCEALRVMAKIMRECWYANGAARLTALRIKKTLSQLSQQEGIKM
assay.method.text: HTRF probe-displacement assay, HIS-TGFβR1 T204D
condition.context: 1 hour at room temperature
Give measured IC50 for each item. Keep answers brief.
One number for each entry, in nM.

• OC1(CCNCc2ccn3nc(-c4ccccn4)nc(Nc4ccncc4F)c23)CCCC1 = 0.7
• O[C@@H](CNCc1ccn2nc(-c3ccccn3)nc(Nc3ccncc3F)c12)c1ccccc1 = 4
• FC(F)(F)c1cccc(-c2nc(Nc3ccncc3Cl)c3cccn3n2)n1 = 1.9
• Cc1cccc(-c2nc(Nc3ccncc3Cl)c3cccn3n2)n1 = 1.6

Now take the following molecule into account.
Request: # value lookup — system HIS-TGFβR1 T204D (Homo sapiens (Human), UniProt P36897, T204D), readout IC50, item CC(C)(C)OCCNC(=O)c1cnccc1Nc1nc(-c2cccc(C(F)F)n2)nn2cccc12
Response: 48
